Test system: U251 CNS
Assay: NCI tumour cell line growth inhibition, 48 h
Can you tell me TGI for the items I'm about to list?

Worked cases, TGI given:
Oc1ccc(C(c2ccccc2)(c2ccccc2)c2ccccc2)cc1 : > 100 µM
COc1cc2oc(=O)cc(C)c2cc1[N+](=O)[O-] : > 100 µM
CN(C)/[N+]([O-])=N/Oc1cc(Nc2cccc(C(=O)O)c2)c([N+](=O)[O-])cc1[N+](=O)[O-] : > 100 µM
COc1ccc(-c2ccc(C3CC(c4ccc(O)cc4)=NN3)o2)c([N+](=O)[O-])c1 (stereo not drawn) : > 100 µM
CC(C)=CCC[C@]1(C)CC[C@]2(C)C3CCC(=C(C)C)[C@@H](CCCO)[C@]3(C)CC[C@@]2(C)C1 (stereo partly drawn) : 61.4 µM

Provide each entry's TGI from the list below.
1. NC(=O)NC(=O)c1cnccn1
2. Cc1ccc(/C=C2\CN(C)CC3=C2OC(N)=C(C#N)C3c2ccc(C)cc2)cc1 (stereo not drawn)

Output line:
1: > 100 µM; 2: > 61.1 µM

Value sought for every listed compound: TGI.
1. O=C(Nc1ccc(-c2nc3cc4ccccc4cc3[nH]2)cc1)c1cccc(Br)c1
2. S=CN1CCCCC1

Output line:
19 µM
> 100 µM

Batch: TGI for all items listed.
1. C=C1C(=O)O[C@@H]2[C@H]3O[C@]3(C)CCC=C(C)CC[C@@H]12
2. COc1ccc(C(=O)Cn2c(C(=O)c3ccc(OC)cc3)nc3ccccc32)cc1
3. CC(=O)ON(OC(C)=O)c1ccc(C)cc1
4. COc1ccc2[nH]cc(CCNC(C)=O)c2c1

Output line:
1: 88.6 µM; 2: > 100 µM; 3: > 100 µM; 4: > 100 µM

* * *

Task for the reader: assign each of the following compounds its reported GI50.
Tested on: MDA-MB-231 breast
Experiment: NCI tumour cell line growth inhibition, 48 h

Some compounds with known GI50 results, for comparison:
O=[N+]([O-])c1cnc(Sc2ccncn2)c([N+](=O)[O-])c1 : 14.8 µM
Oc1ccc2ccccc2c1C=NCCCN=Cc1c(O)ccc2ccccc12 : 11.6 µM
OCCN(CCO)N=Nc1ccc(-c2nc3ccccc3[nH]2)cc1 : 31.3 µM
CNc1ccccc1C(=O)N/N=C/C=C/c1ccccc1 : 4.11 µM
O=C(/C=C/c1ccco1)c1ccc(Nc2nc(Nc3ccc(F)cc3)nc(Nc3ccc(Cl)cc3)n2)cc1 : 16.2 µM

Each of the following entries comes with a recorded value; kindly state GI50 for each.
1. CCC1=C(C)/C(=C/c2[nH]c(C)c(C(=O)CCCCC(=O)OC)c2C)N=C1c1ccc[nH]1
2. Nc1ccccc1C#CC#Cc1ccccc1N
3. CCN1C(=O)C/C(=C\C(C)=O)Nc2ccccc21
4. CCn1c(=O)c(-c2ccn[nH]2)cc2c(C)nc(N)nc21

Output line:
1: 4.6 µM; 2: 10.9 µM; 3: > 100 µM; 4: 1.45 µM

Fill in GI50 for each of the 7 compounds listed.
1. Oc1ccc(C(c2ccccc2)(c2ccccc2)c2ccccc2)cc1
2. COc1cccc(-c2nn(-c3ccccc3)cc2-c2ccnc(NCCNS(=O)(=O)c3ccc(Cl)cc3)c2)c1
3. CCc1ccc(-c2nnc(COc3ccc(-c4nc5ccc(C)cc5[nH]4)cc3OC)o2)cc1
4. Nc1c(C(=O)Nc2ccccc2)sc2nc3c(cc12)CCCCCC3
5. CC(C)(C)[OH+][O-].[O-]c1ccc(Cl)cc1C=Nc1ccc(Cl)cc1[O-].[O]=[V]
6. CS(=O)(=O)c1ccc(Oc2cc(F)cc(C#N)c2)c2c1[C@H](O)[C@H](F)[C@@H]2F
7. COc1ccc(CN2C(=O)/C(=C\c3cc(OC)c(OC)c(OC)c3)c3cc(OC)ccc32)cc1

Output line:
["16.7 µM", "3.55 µM", "2.05 µM", "0.892 µM", "29.9 µM", "> 100 µM", "2.89 µM"]

Input line: For the compound shown here, CN(C)CCNC(=O)c1ccc(Nc2nc3ccccc3c3occc23)cc1 , give the reported GI50.
Output line: 1.54 µM

* * *

System: MDA-MB-231 breast
Test: NCI tumour cell line growth inhibition, 48 h
observable: TGI (µM)
Give bare numbers, in µM.

Worked examples follow.
Nc1c(C(=O)Nc2ccccc2)sc2nc3c(cc12)CCCCCC3 : 43.1
CC1=C(C)C(=O)c2c(c(C(=O)c3ccccc3)c3nc4ccccc4n3c2C)C1=O : 46
CCN(CC)c1ccc(/C=C(\C#N)c2nc(N)nc(N3N=C(C)CC3(C)C)n2)cc1 : 26.8
CC(C)(C)[Si](C)(C)OCC1CCC(n2cnc3c(NC(=O)c4ccccc4)ncnc32)O1 (stereo not given) : 37.1

Let us move to another entry and its TGI.
Input line: Dear colleague, I am looking for the recorded TGI of the following compound: Oc1c(CN2CCC(N3CCOCC3)CC2)cc(Cc2cc(CN3CCC(N4CCOCC4)CC3)c(O)c3ncccc23)c2cccnc12
Output line: 5.03

* * *

Tested on: LXFL 529 NSCLC
Assay: NCI tumour cell line growth inhibition, 48 h
I'd be grateful if you could share measured TGI for these entries.

CC1=CC=NN2C(=O)[C@H](C)C2C1 (stereo partly specified) : > 100 µM
O=C1NC(=O)C(C(=O)C(=O)Nc2ccc(Br)cc2)C(=O)N1 : > 100 µM
C/C(=N\NC(=S)N1CCCCCC1)c1nccnc1C : > 100 µM
CCNc1nnc(CSc2nc(-c3ccccc3)c(-c3ccccc3)[nH]2)s1 : 64.8 µM

Batch request: TGI for each of the following compounds.
1. NC(N)=NCCCC(N=c1c2ccccc2n(O)c2ccccc12)C(=O)O (stereo unspecified)
2. NC(=S)/N=C/c1c(O)c2ccccc2oc1=O

Output line:
1. > 100 µM
2. > 100 µM

* * *

System: SK-MEL-5 melanoma
Experiment: NCI tumour cell line growth inhibition, 48 h; in the data active means GI50 below about 0.43 µM; inactive means the rest
Can you answer with just one of these options? active, inactive

COc1ccc(C(=O)/C=C/c2ccc(O)c(O)c2F)c(OC)c1 : inactive
N#CC1=C(N)Oc2cc3c(cc2C1c1cccs1)OCO3 (stereo unspecified) : active
Cc1ccc(Nc2nc(NCCO)c3ccccc3n2)cc1C : inactive
O=[N+]([O-])c1cnc(Sc2ccncn2)c([N+](=O)[O-])c1 : inactive
Cc1[nH]c(=O)[nH]c(=O)c1N(CCF)CCCl : inactive

For the next question, use this molecule.
Input line: Write down the call the test reported for this molecule. Item: Oc1ccc2ccccc2c1C=NCCCN=Cc1c(O)ccc2ccccc12
Output line: inactive

* * *

Test system: MOLT-4 leukemia
Assay: NCI tumour cell line growth inhibition, 48 h
observable: TGI (µM)
Give bare numbers, in µM.

Use these answered entries as a reference point.
CCNc1nnc(CSc2nc(-c3ccccc3)c(-c3ccccc3)[nH]2)s1 : 56.7
O=C1C=CC(=O)c2c1ccc1c3ccccc3n(-c3ccccn3)c21 : 84.5
C=C1C(=O)O[C@H]2[C@H]1CC/C(COC(=O)C(=O)c1c[nH]c3ccccc13)=C\CC[C@@]1(C)O[C@@H]21 : 7.3

Turning now to a further molecule:
Input line: Look at this molecule and give its reported TGI. C=CC1(C)CCC(C(C)C(=O)C(C=C(C)C)OC(C)=O)C12C(=O)Oc1ccccc1C2=O (stereo not given)
Output line: 78.7

* * *

Test system: SK-MEL-2 melanoma
Assay: NCI tumour cell line growth inhibition, 48 h
observable: GI50

Oc1ccc(C(c2ccccc2)(c2ccccc2)c2ccccc2)cc1 : 13600 nM
O=C(/C=C/c1ccco1)c1ccc(Nc2nc(Nc3ccc(F)cc3)nc(Nc3ccc(Cl)cc3)n2)cc1 : > 49800 nM
Oc1ccc2ccccc2c1C=NCCCN=Cc1c(O)ccc2ccccc12 : 12600 nM

Hi! Can you tell me GI50 for each of these compounds?
1. CCn1c(=O)c(-c2ccn[nH]2)cc2c(C)nc(N)nc21
2. CCc1ccc(-c2nnc(COc3ccc(-c4nc5ccc(C)cc5[nH]4)cc3OC)o2)cc1

Output line:
2250 nM
2710 nM

Input line: Look up GI50 for this compound: CC(C)C[C@H](NC(=O)[C@H](Cc1ccccc1)n1ccc(N2CCCCC2)cc1=O)B(O)O
Output line: 460 nM

* * *

Tested on: MOLT-4 leukemia
Experiment: NCI tumour cell line growth inhibition, 48 h
Would you kindly list TGI for each of these molecules?

The examples below pair each entry with its known result.
O=C(NN=C1CCN(Cc2ccccc2)CC1)C(O)(c1ccccc1)c1ccccc1 : > 100 µM
N#CC1=C(N)Oc2cc3c(cc2C1c1cccs1)OCO3 (stereo not given) : > 100 µM

Please look at the items below and tell me TGI for each one, in order.
1. O=C1C2C(C(=O)N1O)N(Cc1ccccc1)C(=O)N2Cc1ccccc1 (stereo not given)
2. CN1CCN(Cc2ccc(-c3cc4ncnc(Nc5ccc(OCc6cccc(F)c6)c(Cl)c5)c4s3)o2)CC1
3. CC(C)(C)NNC(=O)/C(=C/c1ccc(Oc2ccc(Cl)c(Cl)c2)cc1)NC(=O)c1ccccc1
4. CC(Cn1c2c3ccccc3ccc2c2oc(=O)c3ccccc3c21)N(C)C (stereo not given)
5. Cc1c(N2C(=O)/C(=C/C=C/c3ccccc3)N=C2c2ccccc2)c(=O)n(-c2ccccc2)n1C

Output line:
1: > 100 µM; 2: 9.39 µM; 3: > 100 µM; 4: > 100 µM; 5: 78.8 µM

For the 3 molecules below, give their TGI values.
1. COc1c2c(c(OC)c3c1c(=O)c1ccccc1n3C)OCO2
2. COC(=O)C1(C)C=C(Nc2ccccc2)C(=O)N1c1ccccc1 (stereo not given)
3. NCc1ccc(-c2ccc(-c3ccc(-c4ccc(CN)s4)s3)s2)s1

Output line:
> 31.6 µM
> 100 µM
> 100 µM

Recorded values, source PubChem BioAssay (NCI).
